# growth per record follows
- Test system: HT29 colon
- PROTOCOL: NCI-60 one-dose screen, 48 h (100 = growth as untreated, 0 = no growth, -100 = all killed)
- CONDITIONS_USED: 10 µM
About 83,000 compounds went through this panel and 20% of them were active in at least one assay; those are over-represented in the sample as a whole.
The answer is to be given in %; state only the numeric part.

>>> recorded_value("O=P(O)(O)OCC(O)CO (stereo not given)")
101
>>> recorded_value("Cc1cc(N)ccc1-c1ccc(N)cc1C")
102
>>> recorded_value("CC1(O)OC(COc2ccc(Cl)cc2)COC1O (stereo not given)")
116
>>> recorded_value("CC1NC(=O)NC1CCCCCC(=O)O (stereo not given)")
102
>>> recorded_value("COC(=O)/C=C\\C(=O)OC")
103
>>> recorded_value("COc1cc2nn(-c3ccccc3N)nc2cc1OC")
103
>>> recorded_value("COC(=O)Nc1nc2ccc(C(=O)c3ccc(F)cc3)cc2[nH]1")
7.47
>>> recorded_value("CC(CC(=O)c1ccccc1)c1ccccc1 (stereo not given)")
95.7
>>> recorded_value("COC(=O)C(C)Oc1ccc(OC#N)cc1 (stereo not given)")
102

# ---- query molecule ----
Given `N#CCCc1ccc(O)cc1` , state its recorded growth.
108

Every entry's value here was drawn from PubChem BioAssay (NCI).
